The measurements presented in this section are drawn from PubChem BioAssay (EPA / NIEHS).

- method description: BSK_hDFCGF_Proliferation: Cell Proliferation Assessment in the BioMAP Diversity Plus: hDFCGF Assay (AID 2283059);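 also: curves fitted for both rise and fall of signal versus DMSO baseline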
- assay conditions: primary human foreskin fibroblasts
The source made the active and inactive calls. The calls were made as follows: active = hit-call score of the fitted dose curve at least 0.9, where 1 is the maximum; inactive = score below 0.9.
Reply using exactly one outcome from active, inactive

## Task Per the assay record, what outcome was assigned to OC[C@H]1O[C@@H]2O[C@H]3[C@H](O)[C@@H](O)[C@@H](O[C@H]4[C@H](O)[C@@H](O)[C@@H](O[C@H]5[C@H](O)[C@@H](O)[C@@H](O[C@H]6[C@H](O)[C@@H](O)[C@@H](O[C@H]7[C@H](O)[C@@H](O)[C@@H](O[C@H]1[C@H](O)[C@H]2O)O[C@@H]7CO)O[C@@H]6CO)O[C@@H]5CO)O[C@@H]4CO)O[C@@H]3CO ?
## Result inactive

## Task Subsequent entry: CCCc1ccccc1
## Result inactive

## Task Another: CCCCCCOC(=O)CC(CC(=O)OCCCCCC)(OC(=O)CCC)C(=O)OCCCCCC
## Result inactive

## Task One more compound: NC(=O)N1c2ccccc2C=Cc2ccccc21
## Result inactive

## Task Then O=C(Cl)C(F)(F)C(F)(F)C(F)(F)C(=O)Cl ?
## Result inactive

## Task Next: c1ccc2ncccc2c1
## Result inactive

## Task Okay, and CC(C)C(=O)Nc1ccc([N+](=O)[O-])c(C(F)(F)F)c1 ?
## Result inactive

## Task What do we get for OCCC(F)(F)C(F)(F)C(F)(F)C(F)(F)F ?
## Result inactive

## Task Further, for CCCCCCCC1CCC(=O)O1 (stereo not given) ?
## Result inactive

## Task Cc1cccc(O)c1C , same question.
## Result inactive

## Task Here is the next compound: CC[C@H](C)C(=O)O[C@H]1C[C@H](O)C=C2C=C[C@H](C)[C@H](CC[C@@H](O)C[C@@H](O)CC(=O)O)[C@H]21
## Result inactive

## Task And for CCCCOC(=O)c1ccccc1 ?
## Result inactive

## Task Same question for Cc1nccn1-c1ccc(Sc2cccc(C3(C(N)=O)CCOCC3)c2)cc1 please.
## Result active

## Task Let us now turn to CCCCCCCC/C=C\CCCCCCCC(=O)OC[C@@H](O)[C@H]1OC[C@H](O)[C@H]1O
## Result inactive

## Task Lookup C[Si](C)(C)C(F)(F)C(F)(F)C(F)(F)F
## Result inactive

## Task Okay, and Nc1ccn([C@@H]2O[C@H](CO)[C@@H](O)[C@@H]2O)c(=O)n1 ?
## Result active

## Task Input OCc1c[nH]c2ccccc12
## Result active

## Task What about COc1cc(C(C)C)c2c(c1)S(=O)(=O)N(COc1cc(=O)n3cccc(OCCN4CCCCC4)c3n1)C2=O ?
## Result active

## Task Thanks! And OC[C@H]1O[C@@](CO)(O[C@H]2O[C@H](CO)[C@@H](O)[C@H](O)[C@H]2O)[C@@H](O)[C@@H]1O ?
## Result inactive

## Task Again, but for CCCOc1ccc(S(=O)(=O)N2CCN(CC)CC2)cc1-c1nc2c(CC)n(Cc3ccccn3)nc2c(=O)[nH]1
## Result inactive
